Data credit: patent US7713956B2

assay text: Pharmacokinetics after oral administration of a 60 μmol/kg dose in the rat
Assay type: in vivo
run conditions: 60 umol/kg; analyte = administered product; oral 60 μmol/kg, rat, plasma; mean
From the text: Pharmacokinetics of the Compound ST1469 and its Corresponding Des Methyl Derivative ST2087 Effect of the Oral Administration of a 60 μmol/kg Dose of Each Product in the Rat Administration of ST1469 in the Rat (Table 1). Administration of ST2087 in the Rat (Table 1)
measure: Cmax (µM)
Give bare numbers, in µM.

What value of Cmax has been reported for the following molecule? Clc1ccc2c(c1)C(N1CCNCC1)Cn1cccc1S2 (racemic) [ST2087]
4.09
